These data points were gathered from patent US20260234115A1.

assay: Plate-based fluorescence (RiboGreen) assay: nucleic acid cargo content and encapsulation efficiency of LNPs; type: physicochemical; conditions: LNP, Formulation F1, N/P 6
In this section we review reported EE (%) N/P:6 values for a set of molecules.
quantityName: EE (%) N/P:6

{"molecule": "CCCCC/C=C\\CCOC(=O)CCCCCC(=O)OCC(COC(=O)CCCCCC(=O)OCC/C=C\\CCCCC)(COC(=O)CCCCCC(=O)OCC/C=C\\CCCCC)COC(=O)CCC(CCCCCC)OC(=O)NCCN1CCCC1 (stereo not shown)", "readoutValue": "99%"}
{"molecule": "CCCCC/C=C\\CCOC(=O)CCCCCC(=O)OCC(COC(=O)CCCCCC(=O)OCC/C=C\\CCCCC)(COC(=O)CCC(CCCCCC)OC(=O)NCCN1CCCC1)COC(=O)CCC(OCCCCCCCC)OCCCCCCCC (stereo not shown)", "readoutValue": "100%"}
{"molecule": "CCCCC/C=C\\C/C=C\\CCCCCCCC(=O)OCC(COC(=O)CCCCCCC/C=C\\C/C=C\\CCCCC)(COC(=O)CCC(CCCCCC)OC(=O)NCCN1CCCC1)COC(=O)CCC(OCCCCCCCC)OCCCCCCCC (stereo not shown)", "readoutValue": "100%"}
{"molecule": "CCCCC/C=C\\CCOC(=O)CCCCCCC(=O)OCC(COC(=O)CCCCCCC(=O)OCC/C=C\\CCCCC)(COC(=O)CCCCCCC(=O)OCC/C=C\\CCCCC)COC(=O)CCC(CCCCCC)OC(=O)NCCN1CCCC1 (stereo not shown)", "readoutValue": "100%"}
